System: MS2 coat protein
protocol-description: apparent Kd, MS2 coat protein; higher = weaker binding; RNA-MaP array; FMN 200 µM where present
measurement-parameters: ligand present: flavin mononucleotide; designed as: OFF switch for flavin mononucleotide
Is apparent Kd at least 30 nM? Then Criterion met. If not, Criterion not met.

| residue-sequence | class |
| --- | --- |
| CGCACUGAUAGAGGAUAUGUUUAACAUGAGGAUCACCCAUGUGUACAAGUAUCAAUAUUUAUGUAACAGAAGGCUAUUAGUGCG | Criterion not met |
| GGAUUACAUGAGGAUCACCCAUGUGAGGAUAUCGAUGUCCAGUAGGGCGUGCGGGACUCGAGAAGGCACUUGGA | Criterion met |
| UCAGGCUUCGAGAAGGACAUGAGGAUCACCCAUGUGCGUGUGAAGCAGCCAAAAGGCUGCAUCAUGUAGGAUAUCGGAGUCUGC | Criterion met |
| AGAUAGUCAGGAUAUACGUGGAUGGAACACUUAUUUCCACUACAUGAGGAUCACCCAUGUAGAAGGGACUAUCA | Criterion not met |
| GCUUAUAGAGGAUAUACAGAUUAUUACAUGAGGAUCACCCAUGUUCUUCAAUGUAUAUAUGUAGAAGGCUAAGGAU | Criterion met |
| AAAUAACCUAGCAAAAUUUCCUCACAUGAGGAUCACCCAUGUAGAAGGUUAACCUAAUAUAGGAUAAAGGAUAUACGUGCUAGG | Criterion not met |
| CUGGAUAGAGGAUAUUGUGCUGCUGACAUGAGGAUCACCCAUGUAUGUUAACUCGGCCGUCGAGAAGGCUAACAGG | Criterion not met |
| AACAGUGCUAAUAAAUAAGAUCUACAUGAGGAUCACCCAUGUAAGGAUAUCGUCAGGAAUACUGACGAGAAGGUACAUGCACUG | Criterion not met |
| GAGGAGUCAGGAUAUCGGGAAAGGUUGAGGAAGAGAAGAAGCGAGAAGGGACAUGAGGAUCACCCAUGUAGAAG | Criterion met |
| AAUAUAGAGCUGGUCUCAUAAUAAACAUGAGGAUCACCCAUGUAGGAUAUCAGCACGAUAAGUGCUGAGAAGGACAUCCAGCUC | Criterion met |
| GUCAGCUCGUGAGGAUAUACAUGUGCUGGAAACAGCACUAAUUAAUUCACAUGAGGAUCACCCAUGUAGAAGGCACGAGCUGAU | Criterion not met |
| UCGGCGCGAGGAUAUGCGGUUCCUCCCUCGGGCCGGAGCGUACAUGAGGAUCACCCAUGUAGAAGGCGCGCCGC | Criterion not met |
| AAAUAAACUAGCAAAAUUUCCUCACAUGAGGAUCACCCAUGUAAGGAUAUCUGUCCUAAAAGGACAGAGAAGGUACGUGCUAGG | Criterion not met |
| CUCCUACAUGAGGAUCACCCAUGUCAGGAUAUCUCAGUGGCACCUAAAUUCGCCACCCAGAGAAGGGACGUGCA | Criterion not met |
| UUGUUCUGAGGAUAUACAUGAGGAUCACCCAUGUGUUUCUGCUUGGUGUCUAGCGAAUGUAGAAGGCUGUUCUC | Criterion not met |

----------
Tested on: MS2 coat protein
protocol-description: apparent Kd, MS2 coat protein; higher = weaker binding; RNA-MaP array; FMN 200 µM where present
measurement-parameters: ligand present: flavin mononucleotide; designed as: OFF switch for flavin mononucleotide

| residue-sequence | study-target | unit-descriptor | apparent Kd |
| --- | --- | --- | --- |
| GUUAAGGUAGGAUAUACGAUAAUAUAGGGUAGAAUUAUAACACAUGAGGAUCACCCAUGUAGAAGGACCAAUUG | MS2 coat protein | nM | 39.5 |
| GGUCCUUCUGUUAGGAUAUGCUUUGGGCUUCCGCAGUAGAAGGAACAUGAGGAUCACCCAUGUCCGAUGCCGUC | MS2 coat protein | nM | 88.1 |
| GACAUACGCGAUCCUUGGACAUGAGGAUCACCCAUGUACCGGAAGGAUAUCCUUCGCAAAAGCUAGGAGAAGGUUCGGUAGGUC | MS2 coat protein | nM | 86.1 |
| GGAUAGGACAGAGGAUAUACGUGCUAGAGAUAAUAGCAAAAUUUCCUCACAUGAGGAUCACCCAUGUAGAAGGCUGUCCUAUCG | MS2 coat protein | nM | 250 |
| CUGCGCUAGGAGAAGGGCUAGAGUGUGAUAUAUUUGCCCGCGAGCACAUGAGGAUCACCCAUGUAGCAGGAUAUCCAAGCCGAU | MS2 coat protein | nM | 16.5 |
| CCGGAAGUAGAGGAUAUCGUAUCGGAUACGAUACGAGAAGGCUAUACAUGAGGAUCACCCAUGUGUCCUACCGG | MS2 coat protein | nM | 33.3 |
| GUCAAGCUAGGAUAUACAUGAGGAUCACCCAUGUUAUCCUCGUGGGCAGUUUCUUCAUGUAGAAGGAGCAAAGG | MS2 coat protein | nM | 16.6 |
| UGGGUAAGUGUAGGAUAUUUAUAUUAAUAGUAUGGAGAAGGACAUGAGGAUCACCCAUGUACAGGGAGUUACCCAUUUCCUCUC | MS2 coat protein | nM | 1200 |
| UUACGGAUAGAGGAUAUAUUAAGGAAAGUUUCGAUAGAAGGCUAGACAUGAGGAUCACCCAUGUAUAUUGGGAU | MS2 coat protein | nM | 151 |
| GCAUCCAAAGUGAGGAUAUACCUCUGGAUACAGAGGUAGAAGGCACAUGAGGAUCACCCAUGUUACUAGGAUGC | MS2 coat protein | nM | 17 |
| GGGAGUGAAGGAUAUACAUGAGGAUCACCCAUGUGGGAGGAGAGAGGUGAGGAGGCUGGUAGAAGGUCAGGAUG | MS2 coat protein | nM | 51.2 |
| AAGUUGUCAGGAUAUCGUUAAUUUAGUUGUUUGUAUUAGUUCGAGAAGGGACAUGAGGAUCACCCAUGUUUGAA | MS2 coat protein | nM | 40.5 |
| GGAGAUACAUGAGGAUCACCCAUGUAGGAUAUCGGGCCCAUAUAUGGCGAAAGCCAUAUAUGGGCCGAGAAGGGCGUACACACC | MS2 coat protein | nM | 7.45 |
| CGUGACUCAGGAUAUCUAUAGUAUCACAUGAGGAUCACCCAUGUCCAGCGAAAGCUGGAGGGAGAAGGGAGUCACG | MS2 coat protein | nM | 53.9 |
| UCAGUAGAGUCAGGAUAUACGAAAGUAGAUCCUUACAUGAGGAUCACCCAUGUAGAAGGGACUCUACUGUAAGUCGGAAACGAC | MS2 coat protein | nM | 69.1 |
| AGAUGACAAUGUCAUCUUCAACGGACAUGAGGAUCACCCAUGUAGGAUAUGCUACUCAAAGAGUAGCAGAAGGACAUGUGUCUU | MS2 coat protein | nM | 85.2 |
| GGAAAUCGUGUAGGAUAUGCAUGGCGAAGCUACGCAGAAGGACAUGAGGAUCACCCAUGUUAUAGCGUCCGAGAAAGGAUGCAA | MS2 coat protein | nM | 67.4 |
| AAAAAGUGAGGAUAUACAUGAGAAAAAAAAAUGUAAAAAAAACAUGAGGAUCACCCAUGUAGAAGGCACAAAAA | MS2 coat protein | nM | 82.7 |
| AACGCUAGACUAGGAUAUCGUUUACAUGAGGAUCACCCAUGUAAAGGGUAUUGUCGUCAUACGAACGAGAAGGAGUCGGUAAAU | MS2 coat protein | nM | 26.5 |
| GUAAAUCAUGUAGGAUAUGCAUGGCGAAGCUACGCAGAAGGACAUGAGGAUCACCCAUGUGCUAGCUACCGAGUUCGGUGGCAA | MS2 coat protein | nM | 354 |
| GGACCGUGAAGAGUUGGCGGUCGGCAGGAUAUGACAUGAGGAUCACCCAUGUGAACUCCAUUGGGUCAGAAGGGCCACGACACA | MS2 coat protein | nM | 108 |
| CUUCUGUCAGGAUAUGCGAAUCACCACUGGGUCAGUGGUGAGCAGAAGGGACAUGAGGAUCACCCAUGUAAAGU | MS2 coat protein | nM | 169 |
| CUCGAGUUAGGAUAUCGAACGUAACAAGCGGAAACUCCCGCCGAGAAGGAACAUGAGGAUCACCCAUGUGAAAC | MS2 coat protein | nM | 18.3 |
| CACGAGUGAGGAUAUAGAGAGGUGAGGCUGAAGUCGCAUAUCUAGAAGGCACAUGAGGAUCACCCAUGUCCCUC | MS2 coat protein | nM | 503 |
| CGCAACUCAGAUCUUUUUAACAUGAGGAUCACCCAUGUAUUGAGAAGGAGGAAGAAGAGAGAUUCCUAGGAUAUCAGAGUUGCG | MS2 coat protein | nM | 6.14 |
| ACAUGAGGAUCACCCAUGUACAUGGGUUUAAUUGUUUGUUACUAGGAUAUGUAUUUGAAUUUACAACAGAAGGAGUAUUAAUGU | MS2 coat protein | nM | 414 |
| GUUAUGUGAGGAUAUAUGUAGGAAACUACAUUAAGGGUAUCACAUGAGGAUCACCCAUGUAGAAGGCGCGUAGC | MS2 coat protein | nM | 349 |
| UCGAUGCUAGGAUAUACUAAUACAACUACUGUAGUGUCUUCACAUGAGGAUCACCCAUGUAGAAGGAGCAUAUA | MS2 coat protein | nM | 20.3 |
| AAAAUGUAAGGAUAUCGUCCCGUAAAUAUCGGGAAAAUUGUCGAGAAGGUACAUGAGGAUCACCCAUGUUCCUG | MS2 coat protein | nM | 18.2 |
| CAGUACGGAGGAUAUACAUGAGGAUCACCCAUGUGAGAAAUACUAGUGAGGUCGAUUAGUAGAAGGCUGUACUG | MS2 coat protein | nM | 579 |
